assay_name: melting temperature; fluorescence melt of hairpins on a sequencing array, two-state fit, raised by 9.35 °C to match UV melts
condition_info: sodium 0.088 M
Parameter: Tm. Scope: all listed entries.

| chain_sequence | Tm / °C |
| --- | --- |
| GTGGCCGAAAGGCACCAC ((((((....)))..))) | 43.6 |
| CGGACCCGGAAACGGCCG (((..(((....)))))) | 38.9 |
| GTAGCCGAAAGGCCTAC ((((((....))).))) | 45 |
| GAACCCGAAAGGGTTTC ((((((....))).))) | 56.9 |
| GGAGGCGAAAGCCGTCC ((((((....))).))) | 52.9 |
| GAATACCGAAAGGTTTTC (((.(((....))).))) | 39.5 |
| GGCCTCGCGAAAGCGGCC (((..(((....)))))) | 59.4 |
| GAGGGAGGAAACCCCCTC (((((.(....).))))) | 46.3 |
| GAGTATGGAAACACACTC ((((.((....)).)))) | 31.7 |
| GCTCGAGGAAACTCGGGC ((.((((....)))).)) | 59.9 |
| GTTTCCCCGAAAGGGAAC (((..(((....)))))) | 38.5 |
| GTTAAGCGAAAGCTCAAC (((.(((....))).))) | 37.6 |
| GTTGCCGCGAAAGCGAAC (((..(((....)))))) | 35.6 |
| CGCCACGGAAACGTCGCG (((.(((....))).))) | 48.3 |
| GCAAGACGAAAGTCGTGC (((.(((....))).))) | 61.1 |
| GCGTGCGAAAGCATTCGC ((((((....)))..))) | 52.4 |
| GCACGGCGAAAGCCTAGC ((..(((....)))..)) | 39.5 |
| GTCGTCGAAAGACCGAC ((((((....))).))) | 50.7 |
| GCCTAGCGAAAGCTTTGC ((..(((....)))..)) | 33.4 |
| GGTCTGGGAAACTAGGCC ((.((.(....).)).)) | 41.2 |
| CGAAGCCGGAAACGGTCG (((..(((....)))))) | 37.8 |
| GATTGCGAAAGCACATC ((((((....))).))) | 40.1 |
| GGATTGGAAACAATCC ((((((....)))))) | 55.5 |
| GATGGCGGAAACGTCGTC ((.(.((....)).).)) | 45.4 |
| GTATGAGGAAACTTATAC ((((.((....)).)))) | 31.2 |

meta.source: the array DNA melting data of Ke et al. (doi:10.1101/2024.01.08.574731)
